target: LMPTP-A (Low Molecular Weight Protein Tyrosine Phosphatase-A) enzyme (Homo sapiens (Human))
Sequence (P24666 whole entry): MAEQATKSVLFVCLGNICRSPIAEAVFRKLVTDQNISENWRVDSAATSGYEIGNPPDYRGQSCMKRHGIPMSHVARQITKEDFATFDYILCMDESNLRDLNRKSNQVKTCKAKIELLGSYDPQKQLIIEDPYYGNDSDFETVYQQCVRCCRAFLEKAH
method_notes: LMPTP primary screening / LMPTP (OMFP) enzyme inhibition assay, fluorescence intensity
Assay type: biochemical
condition_details: LMPTP-A, OMFP substrate, method of Example 2; read-out: IC50
readout_kind: IC50

| molecule_smiles | reported |
| --- | --- |
| CN(C)c1cc(-c2cnn(C)c2)nc2ccccc12 | > 5000 nM |
| COc1ccc(-c2cc(NCCc3ccccn3)c3ccccc3n2)cc1 | 801 to 5000 nM |
| O=C(NCC(F)(F)F)c1ccc(-c2cc(NCCCN3CCCCC3)c3ccccc3n2)cc1 | 801 to 5000 nM |
| CN(C)c1ccc(-c2cc(NCCCN3CCCCC3)c3ccccc3n2)cc1 | 801 to 5000 nM |
| c1ccc(-c2nc(NCCN3CCOCC3)c3ccccc3n2)cc1 | > 5000 nM |
| Cc1ccc(C)c(-c2cc(NCCCN3CCCCC3)c3ccccc3n2)c1 | 801 to 5000 nM |
| N#Cc1ccccc1-c1cc(Nc2cccc(CN3CCCC3)c2)c2ccccc2n1 | 801 to 5000 nM |
| COc1ccc(-c2cc(Nc3cccc(CN4CCCCC4)c3)c3ccccc3n2)cc1 | 801 to 5000 nM |
| CNC(=O)c1ccc(-c2cc(NCCCN3CCCCC3)c3ccccc3n2)cc1Cl | 200 to 800 nM |
